# measured_on: T1, hen egg white lysozyme (Gallus gallus (hen egg white), UniProt P00698)
# T1 construct: hen egg white lysozyme (HEWL), 14.5 kDa, monomeric; The source is named for ITC (Roche powder); also called HEWL; source: bought: Roche (HEWL lysozyme powder, > 95%)
# experiment: SPR; Biacore T200; lysozyme amine-coupled (EDC/NHS) to a CM5 chip, max 100 units; nanobody as analyte, multi-cycle kinetics; PBS with 0.01% tween20; 20 °C (row labels of Table 1); Langmuir 1:1 model
# settings: both partners purified
Would you kindly list Kd for each of these binders?
Answer format: numeric, nM implied, no suffix.

Give Kd for the following binder: H04 H106A nanobody (VHH, as the chain of m2 (H04) with H106A in CDR3; source: E. coli T7-Express, purified (IMAC, Superdex-75)) VHH: EVQLLESGGGLVQPGGSLRLSCAASGFRFDAEDMGWVRQAPGKGLEWVSSIYGPSGSTYYADSVKGRFTISRDNSKNTLYLQMNSLRAEDTAVYYCAKYTSPPQNAGFDYWGQGTLVTVSS
124

Give Kd for the following binder: H04 nanobody (VHH, crystal structure with lysozyme PDB 4U3X (Rouet et al. 2015); CDR3 of 12 residues; Developed in Daniel Christ's group (Rouet et al. 2015); source: E. coli T7-Express, purified (IMAC, Superdex-75)) VHH: EVQLLESGGGLVQPGGSLRLSCAASGFRFDAEDMGWVRQAPGKGLEWVSSIYGPSGSTYYADSVKGRFTISRDNSKNTLYLQMNSLRAEDTAVYYCAKYTSPPQNHGFDYWGQGTLVTVSS
19
